Target: PfPanK1 (Plasmodium falciparum)
Sequence (Q8ILP4 1-519): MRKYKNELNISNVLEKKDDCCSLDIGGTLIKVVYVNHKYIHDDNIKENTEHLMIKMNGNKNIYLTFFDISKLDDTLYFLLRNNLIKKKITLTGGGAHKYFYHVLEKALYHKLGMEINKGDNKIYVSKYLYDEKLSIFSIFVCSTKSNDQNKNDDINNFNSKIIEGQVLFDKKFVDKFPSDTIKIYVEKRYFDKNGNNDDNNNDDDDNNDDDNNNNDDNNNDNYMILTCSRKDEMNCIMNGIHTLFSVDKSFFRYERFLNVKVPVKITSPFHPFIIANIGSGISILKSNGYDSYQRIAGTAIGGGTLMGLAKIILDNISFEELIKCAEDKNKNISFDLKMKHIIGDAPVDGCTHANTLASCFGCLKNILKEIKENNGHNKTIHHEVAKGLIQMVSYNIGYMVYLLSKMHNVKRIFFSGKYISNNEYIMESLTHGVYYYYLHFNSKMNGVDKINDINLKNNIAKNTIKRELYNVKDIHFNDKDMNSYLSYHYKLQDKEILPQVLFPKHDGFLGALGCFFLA
Format: biochemical
Details: pantothenate as substrate

| chemical.structure | IC50 |
| --- | --- |
| CC(=O)SCCNC(=O)CCNC(=O)[C@H](O)C(C)(C)COP(=O)(O)OP(=O)(O)OC[C@H]1O[C@@H](n2cnc3c(N)ncnc32)[C@H](O)[C@@H]1OP(=O)(O)O | > 1000 µM |

---

# Relative activity (%) Pantetheine annotations
Molecular target: PfPanK1 (Plasmodium falciparum)
Format: biochemical
Details: pH 8.4
property: Relative activity (%) Pantetheine

| chemical.structure | property | unit.of.measurement | assay.value |
| --- | --- | --- | --- |
| [Cl-].[Na+] | Relative activity (%) Pantetheine | % | 33.1 |
| Nc1nc2c(ncn2[C@@H]2O[C@H](COP(=O)(O)OP(=O)(O)OP(=O)(O)O)[C@@H](O)[C@H]2O)c(=O)[nH]1 | Relative activity (%) Pantetheine | % | 106.5 |
| Nc1ccn([C@@H]2O[C@H](COP(=O)(O)OP(=O)(O)OP(=O)(O)O)[C@@H](O)[C@H]2O)c(=O)n1 | Relative activity (%) Pantetheine | % | 11.3 |
| Cc1cn([C@H]2C[C@H](O)[C@@H](COP(=O)(O)OP(=O)(O)OP(=O)(O)O)O2)c(=O)[nH]c1=O | Relative activity (%) Pantetheine | % | 0.0 |
| O=c1ccn([C@@H]2O[C@H](COP(=O)(O)OP(=O)(O)OP(=O)(O)O)[C@@H](O)[C@H]2O)c(=O)[nH]1 | Relative activity (%) Pantetheine | % | 23.8 |
| Nc1ncnc2c1ncn2[C@H]1C[C@H](O)[C@@H](COP(=O)(O)OP(=O)(O)OP(=O)(O)O)O1 | Relative activity (%) Pantetheine | % | 8.5 |
